Give protein stability index for every item shown.
B1: RIPK4 (parent)
chain: VIDLFDEQGLSALHLAAQGRHAQT

Variants of: B1
protocol: protein stability index of a GFP-peptide fusion (GPS, HEK-293T) (PSI 1-6); higher = more stable;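 also: lentivirally expressed fusions sorted by FACS into six bins by GFP to DsRed ratio, PSI derived from sequencing read proportions per bin multiplied by bin number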
setup conditions: c terminus: a fixed tail appended
One number for each entry.

D3W	2.95
A22T	3.03
T24N	2.92

// for each variant below, give its protein stability index
1. S11N
2. F5C

Result ::
2.95
3.08

Need protein stability index for each of these variants.
1. G9N
2. Q18D
3. D6Q
4. Q18K
5. R20H
6. Q18R
7. A22Y

Result ::
1: 3.41; 2: 3.42; 3: 2.13; 4: 2.17; 5: 2.8; 6: 3.06; 7: 2.23

// for each variant in input: emit protein stability index
1. R20D
2. H14Y
3. F5R
4. Q8P
5. L15M
6. Q23L

Result ::
3.82
2.09
3.64
3.22
3.09
2.52
